Study system: CDK8/Cyclin C (Homo sapiens, UniProt P49336)
Sequence (P49336 whole entry): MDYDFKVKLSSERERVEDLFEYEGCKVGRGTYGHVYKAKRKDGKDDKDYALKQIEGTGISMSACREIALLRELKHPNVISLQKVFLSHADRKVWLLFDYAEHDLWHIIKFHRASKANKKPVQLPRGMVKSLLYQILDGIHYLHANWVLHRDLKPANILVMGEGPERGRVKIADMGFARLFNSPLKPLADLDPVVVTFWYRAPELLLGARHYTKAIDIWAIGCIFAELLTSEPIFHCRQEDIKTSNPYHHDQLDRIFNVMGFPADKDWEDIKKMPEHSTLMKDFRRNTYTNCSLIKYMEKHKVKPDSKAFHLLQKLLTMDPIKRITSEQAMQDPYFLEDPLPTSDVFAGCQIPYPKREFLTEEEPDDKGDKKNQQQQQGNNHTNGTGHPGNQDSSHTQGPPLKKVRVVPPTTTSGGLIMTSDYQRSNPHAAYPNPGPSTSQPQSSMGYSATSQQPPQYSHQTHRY
Sequence (P24863 whole entry, further chain): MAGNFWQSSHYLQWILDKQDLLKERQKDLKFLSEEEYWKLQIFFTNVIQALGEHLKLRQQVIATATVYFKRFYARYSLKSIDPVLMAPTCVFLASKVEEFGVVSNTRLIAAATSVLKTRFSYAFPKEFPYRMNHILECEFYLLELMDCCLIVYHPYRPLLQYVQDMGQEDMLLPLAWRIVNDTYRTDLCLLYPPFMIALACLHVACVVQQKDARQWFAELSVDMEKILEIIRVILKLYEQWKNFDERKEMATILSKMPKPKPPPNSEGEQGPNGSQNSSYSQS
Procedure details: Inhibition of CDK8/Cyclin C (unknown origin) measured after 1 hr by plate reader assay
Quantity: pIC50
To interpret pIC50, take it as minus log10 of a concentration measured in moles per litre.

Data request: Please give the documented pIC50 of CNC(=O)/C=C/c1ccncc1-c1ccc2c(ccn2C)c1
Data returned: 7.11

Data request: Please give the documented pIC50 of CNC(=O)/C=C/c1ccncc1-c1ccc2cc[nH]c2c1
Data returned: 7.73

Data request: Please give the documented pIC50 of O=C(O)/C=C/c1ccncc1-c1ccc2ccccc2c1
Data returned: 8.30

Data request: Please give the documented pIC50 of O=C(O)/C=C/c1ccncc1-c1ccc2cc[nH]c2c1
Data returned: 8.62

Data request: Please give the documented pIC50 of NC(=O)/C=C/c1ccncc1Br
Data returned: 5.62

Data request: Please give the documented pIC50 of NC(=O)/C=C/c1ccncc1-c1ccc2ccccc2c1
Data returned: 7.98

Data request: Please give the documented pIC50 of CNC(=O)/C=C/c1ccncc1-c1ccc2cnn(C)c2c1
Data returned: 6.92

Data request: Please give the documented pIC50 of CN1CCN(C(=O)/C=C/c2ccncc2-c2ccc3ccccc3c2)CC1
Data returned: 7.36

Data request: Please give the documented pIC50 of O=C(O)/C=C/c1ccncc1-c1ccc2[nH]ccc2c1
Data returned: 7.77

Data request: Please give the documented pIC50 of O=C(/C=C/c1ccncc1-c1ccc2ccccc2c1)N1CCOCC1
Data returned: 7.22

Data request: Please give the documented pIC50 of CN(C)C(=O)/C=C/c1ccncc1-c1ccc2ccccc2c1
Data returned: 7.52

Data request: Please give the documented pIC50 of COc1ccc(-c2cnccc2/C=C/C(=O)N2CC(OC)C2)cc1OC
Data returned: 5.92

Data request: Please give the documented pIC50 of CNC(=O)/C=C/c1ccncc1-c1ccc2ncccc2c1
Data returned: 6.60

Data request: Please give the documented pIC50 of CNC(=O)/C=C/c1ccncc1-c1ccc2c(cnn2C)c1
Data returned: 7.06

Data request: Please give the documented pIC50 of Cn1ncc2cc(-c3cnccc3/C=C/C(=O)N3CCOCC3)ccc21
Data returned: 6.45

Data request: Please give the documented pIC50 of CN1CCN(C(=O)/C=C/c2ccncc2-c2ccc(F)cc2)CC1
Data returned: 5.92

Data request: Please give the documented pIC50 of Cn1ncc2ccc(-c3cnccc3/C=C/C(=O)N3CCOCC3)cc21
Data returned: 6.07

Data request: Please give the documented pIC50 of O=C(/C=C/c1ccncc1-c1ccc2ccccc2c1)NC1CC1
Data returned: 7.40

Data request: Please give the documented pIC50 of O=C(/C=C/c1ccncc1-c1ccc2ncccc2c1)N1CCOCC1
Data returned: 5.80

Data request: Please give the documented pIC50 of O=C(/C=C/c1ccncc1-c1ccc2[nH]ccc2c1)N1CCOCC1
Data returned: 6.72

Data request: Please give the documented pIC50 of NNC(=O)CCc1ccncc1-c1ccc2ccccc2c1
Data returned: 8.11

Data request: Please give the documented pIC50 of Cn1ccc2cc(-c3cnccc3/C=C/C(=O)O)ccc21
Data returned: 7.57

Data request: Please give the documented pIC50 of CNC(=O)/C=C/c1ccncc1-c1ccc2ccccc2c1
Data returned: 7.91

Data request: Please give the documented pIC50 of COC(=O)CCc1ccncc1-c1ccc2ccccc2c1
Data returned: 6.59

Data request: Please give the documented pIC50 of O=C(O)CCNC(=O)/C=C/c1ccncc1-c1ccc2ccccc2c1
Data returned: 6.06
